Reference source: PubChem BioAssay (NCI)

Test system: NCI-H322M lung
Assay: NCI-60 one-dose screen, 48 h (100 = growth as untreated, 0 = no growth, -100 = all killed)
Conditions: 10 µM unless noted
The panel holds about 83,000 compounds, 20% with a hit somewhere; the sample as a whole holds those more often.
Rule: growth of 60% or more gives 1; anything lower gives -1.

Does O=C1Nc2ccc(F)cc2/C1=C\c1c(-c2ccccc2)nc2ccccn12 have a reported growth of at least 60%? 1

More entries:
Does O=C(/C=C/c1ccc[nH]1)c1ccc(-n2ccc(C(F)(F)F)n2)c(F)c1 have a reported growth of at least 60%? 1

Does CN(C)CCn1c2ccc(Br)cc2c2nc3ccccc3nc21 have a reported growth of at least 60%? -1

Does CC(C)c1ccc(Nc2ccc3c(OCCCN4CCN(C)CC4)cccc3n2)cc1 have a reported growth of at least 60%? 1

Does N#CC1=C(N)Oc2c(cnn2-c2ccc([N+](=O)[O-])cc2[N+](=O)[O-])C1c1ccccc1 (centres undefined) have a reported growth of at least 60%? 1

Does Cc1c(C)c([N+](=O)[O-])c(C)c([N+](=O)[O-])c1C have a reported growth of at least 60%? 1

Does CN1[C@@H]2CC[C@H]1/C(=C\c1ccccc1)C(=O)/C2=C/c1ccccc1 have a reported growth of at least 60%? -1

Does C/C(=N\NC(=O)CSc1nc2ccccc2c(=O)n1Cc1ccc(S(N)(=O)=O)cc1)c1ccc(F)cc1 have a reported growth of at least 60%? 1

Does CN1CCN(CCNc2nccc(-c3c(-c4cccc(O)c4)nc4sccn34)n2)S1(=O)=O have a reported growth of at least 60%? 1

Does O=C(CNCCN1CCOCC1)N1c2cccc3cccc(c23)N(C(=O)CNCCN2CCOCC2)C1c1cn(-c2ccccc2)nc1-c1cccc([N+](=O)[O-])c1 have a reported growth of at least 60%? 1
